EXPERIMENTAL_SYSTEM: human glypican-3 (GPC3) (human, UniProt P51654 25-554); also: test concentration or dose not given here
METHOD: cell-based or functional assay
MEASURED_PROPERTY: JHH-5 Internalization (MFI)
Express it in MFI; write the number only.

• H18L6_LC_G34V mAb, v40211 (antibody, human IgG1, kappa, V domains shown, M3-H18L6 chains with the stated light chain point mutation, IgG1/kappa) VH: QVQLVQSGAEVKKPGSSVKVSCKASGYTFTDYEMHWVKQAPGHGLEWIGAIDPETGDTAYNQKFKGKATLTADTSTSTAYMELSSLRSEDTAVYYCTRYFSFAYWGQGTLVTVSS VL: EIVLTQSPATLSLSPGERATISCRSSQSLRHSNVNTYLQWYQQKPGQAPRLLIYKVSNRFSGVPARFSGSGSGTDFTLTISSLEPEDFAVYFCYQSKHVPYTFGGGTKVEIKR = 3560

Next:
So for codrituzumab (v37575) (antibody, human IgG1, kappa, V domains shown, also called GC33; RG-7686) VH: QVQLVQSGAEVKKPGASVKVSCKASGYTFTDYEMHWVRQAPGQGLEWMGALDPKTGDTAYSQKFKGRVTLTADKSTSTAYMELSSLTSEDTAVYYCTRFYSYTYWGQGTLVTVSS VL: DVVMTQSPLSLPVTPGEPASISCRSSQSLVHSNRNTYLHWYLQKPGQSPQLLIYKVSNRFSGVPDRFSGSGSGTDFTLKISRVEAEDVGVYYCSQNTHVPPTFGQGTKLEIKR , the logged JHH-5 Internalization (MFI) turned out to be 8770
